target: GPR139 (Homo sapiens, UniProt Q6DWJ6); test: [3H]JNJ-63533054 radioligand competition binding assay on membranes of HEK293T/17 cells; design: HA signal peptide (HASP) (N); expressed in transfected cells; host or cells: HEK293T/17 cells (membrane preparation); details: 10 μM of the indicated compound; (10 μM) JNJ-63533054 as printed in title
// class 0 strictly below 80% in inhibition at 10 µM; class 1 otherwise

COMPOUND: Cc1cc(I)ccc1NC(=O)CSc1cccs1 [SR-01000253143]
CLASS_LABEL: class 0
//
COMPOUND: O=C(CS(=O)(=O)c1ccccc1)Nc1ccc(Oc2ccccc2)cc1 [SR-01000263867]
CLASS_LABEL: class 0
//
COMPOUND: CCN1C(=O)c2cccc3c(S(=O)(=O)Nc4cccc(F)c4)ccc1c23 [SR-01000110577]
CLASS_LABEL: class 0
//
COMPOUND: CN1CCN(S(=O)(=O)c2ccc(Sc3ccc(Cl)cc3)c([N+](=O)[O-])c2)CC1 [SR-07000003837-2 analog 2]
CLASS_LABEL: class 0
//
COMPOUND: O=C(NCCC1=CCCCC1)N1c2ccccc2Sc2ccccc21 [SR-01000452455-1 analog]
CLASS_LABEL: class 1
//
COMPOUND: CC1CCCC(NC(=O)c2cccc(NS(=O)(=O)c3ccc(Br)cc3)c2)C1C (centres unmarked) [SR-01000594343]
CLASS_LABEL: class 1
//
COMPOUND: CCOC(=O)c1c(C)nc2c(c1-c1ccc(F)cc1)C(=O)CC(c1ccc(Cl)cc1)C2 (centres unmarked) [SR-01000419112]
CLASS_LABEL: class 1

###

target: GPR139 (Homo sapiens); assay: GPR139 Agonist titration / agonist counterscreen assay (calcium detection, HEK-GPR139 cells); format: cell-based; parameters: expressed in transfected cells; host or cells: HEK Aequorin cells, Maxcyte transient transfection; details: GPR139 Agonist Activity; activity relative to known control
Quick list: Averaged Max % Response (±St. Dev.) per entry.
ENDPOINT: Averaged Max % Response (±St. Dev.) (%)

COMPOUND: CC1CCCCN1C(=O)CN1C(=O)C2(CCc3ccccc3C2)NC1=S (centres unmarked) [SR-01000044433]
ENDPOINT: Averaged Max % Response (±St. Dev.)
UNIT_SPEC: %
NUMBER: 96.03

COMPOUND: Cc1cccc(OCC(=O)NNC(=O)C(C)Oc2ccc(Cl)cc2Cl)c1 (centres unmarked) [SR-01000318010]
ENDPOINT: Averaged Max % Response (±St. Dev.)
UNIT_SPEC: %
NUMBER: 90.09

COMPOUND: Cc1cc(C)c2c(CC(=O)NNC(=O)COc3ccccc3)coc2c1 [SR-01000301649]
ENDPOINT: Averaged Max % Response (±St. Dev.)
UNIT_SPEC: %
NUMBER: 93.20

COMPOUND: COc1cc(C(=O)NCCn2ccc3ccccc32)cc(OC)c1OC [SR-01000124399]
ENDPOINT: Averaged Max % Response (±St. Dev.)
UNIT_SPEC: %
NUMBER: 147.35

COMPOUND: COc1ccc(C2(C)NC(=O)N(CC(=O)NCc3ccc(F)cc3)C2=O)cc1 (centres unmarked) [SR-01000918720]
ENDPOINT: Averaged Max % Response (±St. Dev.)
UNIT_SPEC: %
NUMBER: 107.14

###

Molecular target: GPR139 (Homo sapiens, UniProt Q6DWJ6)
Sequence (Q6DWJ6 1-353): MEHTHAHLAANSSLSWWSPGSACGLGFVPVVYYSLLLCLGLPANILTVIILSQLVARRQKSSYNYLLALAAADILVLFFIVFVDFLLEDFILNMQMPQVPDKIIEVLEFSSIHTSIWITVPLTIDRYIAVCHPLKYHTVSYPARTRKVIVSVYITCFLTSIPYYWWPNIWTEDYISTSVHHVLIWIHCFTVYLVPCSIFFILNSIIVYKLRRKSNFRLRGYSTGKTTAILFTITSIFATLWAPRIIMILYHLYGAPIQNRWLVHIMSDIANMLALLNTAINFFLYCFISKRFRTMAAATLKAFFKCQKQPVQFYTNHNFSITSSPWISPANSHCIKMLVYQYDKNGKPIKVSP
Test: GPR139 Agonist titration / agonist counterscreen assay (calcium detection, HEK-GPR139 cells)
Assay type: cell-based
Design: expressed in transfected cells; host or cells: HEK Aequorin cells, Maxcyte transient transfection
Conditions: GPR139 Agonist Activity
ENDPOINT: Efficiency Ligand

COMPOUND: Cc1[nH]c(=O)[nH]c(=O)c1/C=N\NC(=O)CCc1ccc(OC(C)C)cc1 [SR-01000357697]
RESULT: 0.31

COMPOUND: COC(=O)c1ccc(CNC(=O)Nc2ccc(-c3cn[nH]c3)cc2)cc1.O=C(O)C(F)(F)F [SR-00000005410]
RESULT: 0.31

COMPOUND: COC(=O)c1ccc(NC(=O)CNC(=O)C2CCCCC2)c(C)c1 [SR-01000246445]
RESULT: 0.36

COMPOUND: CCCc1nn(CC(=O)NCc2nc3ccccc3n2C)c(=O)c2cc3ccsc3n12 [SR-01000336681]
RESULT: 0.26

###

test system: parental HEK cells; experiment: HEK parental Agonist Counterscreen Assay (non-transfected cells); type: cell-based; conditions: Homo sapiens, HEK293; HEK Agonist Activity section of Table 4 (parental HEK counterscreen)
ENDPOINT: EC50

COMPOUND: CCOc1ccc(C(=O)NCCc2ccc(F)cc2)cc1OCC [SR-01000243797]
ENDPOINT: EC50
RESULT: > 14.1 µM
--
COMPOUND: COC(=O)c1ccc(NC(=O)CNC(=O)C2CCCCC2)c(C)c1 [SR-01000246445]
ENDPOINT: EC50
RESULT: > 14.1 µM
--
COMPOUND: CC(C(=O)NCCC1=CCCCC1)n1c(=O)c2cccn2c2ccccc21 (centres unmarked) [SR-01000142419]
ENDPOINT: EC50
RESULT: > 14.1 µM
--
COMPOUND: O=C(CN1C(=O)OC(O)(c2ccc(Cl)cc2Cl)C1=O)Nc1ccccc1Cl (centres unmarked) [SR-01000062419]
ENDPOINT: EC50
RESULT: > 14.5 µM
--
COMPOUND: CCCc1ccccc1C1=CCC(NC(=O)Cn2ncc3c2-c2ccccc2CC3)=C1 [SR-01000135037]
ENDPOINT: EC50
RESULT: > 14.1 µM

###

Target: GPR139 (Homo sapiens, UniProt Q6DWJ6)
Sequence (Q6DWJ6 1-353): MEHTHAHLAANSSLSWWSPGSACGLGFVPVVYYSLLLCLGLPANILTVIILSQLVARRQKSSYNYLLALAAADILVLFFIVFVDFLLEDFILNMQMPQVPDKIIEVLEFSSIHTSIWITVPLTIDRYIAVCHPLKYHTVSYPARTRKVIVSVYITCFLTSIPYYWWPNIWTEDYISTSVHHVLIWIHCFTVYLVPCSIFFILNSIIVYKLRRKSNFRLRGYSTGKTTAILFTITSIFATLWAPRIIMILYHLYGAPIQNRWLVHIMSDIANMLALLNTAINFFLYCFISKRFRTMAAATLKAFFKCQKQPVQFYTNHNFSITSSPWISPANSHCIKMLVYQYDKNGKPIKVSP
Test: GPR139 Agonist titration / agonist counterscreen assay (calcium detection, HEK-GPR139 cells)
Assay type: cell-based
Set-up: expressed in transfected cells; host or cells: HEK Aequorin cells, Maxcyte transient transfection
Conditions: GPR139 Agonist Activity
Listing: Lipophilic Efficiency (logP) of selected compounds

COMPOUND: O=C1CCCCN1c1cccc(NS(=O)(=O)c2cc(Cl)ccc2Cl)c1 [SR-01000916375]
Lipophilic Efficiency (logP): 2.99

COMPOUND: CC1CCCC(NC(=O)CN2CCN(Cc3ccc(F)cc3Cl)C2=O)C1C (stereo not drawn) [SR-01000125648]
Lipophilic Efficiency (logP): 3.13

COMPOUND: Cc1cc(NC(=O)Cn2ncc3c2-c2ccccc2OC3)no1 [SR-01000098884]
Lipophilic Efficiency (logP): 4.12

COMPOUND: O=C(CC1CCN(Cc2ccccc2O)C1=O)C1CCC(c2cccc(O)c2)C(O)C1 (stereo not drawn) [SR-01000151350]
Lipophilic Efficiency (logP): 3.10

COMPOUND: CCN(Cc1ccccc1)C(=O)Cn1cnc2sc(O)c(C)c2c1=O [SR-01000468553]
Lipophilic Efficiency (logP): 3.11

COMPOUND: O=c1c2c([nH]c3nc(NCc4ccccc4Cl)nn13)CCC2 [SR-01000153956]
Lipophilic Efficiency (logP): 2.80

COMPOUND: CC1(c2ccc3c(c2)OCO3)NC(=O)N(CC(=O)NC2CCCC2)C1=O (stereo not drawn) [SR-01000065547]
Lipophilic Efficiency (logP): 5.32

COMPOUND: CCCc1nn(CC(=O)NCc2nc3ccccc3n2C)c(=O)c2cc3ccsc3n12 [SR-01000336681]
Lipophilic Efficiency (logP): 3.33

COMPOUND: O=C(Cn1ncn2cccc2c1=O)NCCc1ccc(Cl)cc1 [SR-01000140172]
Lipophilic Efficiency (logP): 5.11

COMPOUND: COc1ccc(Cl)cc1C(=O)NNC(=O)CCc1ccc([N+](=O)[O-])cc1 [SR-01000054340]
Lipophilic Efficiency (logP): 3.43

COMPOUND: Cc1c(C=O)c2ccccc2n1CC(=O)NCc1ccccc1 [SR-01000269911]
Lipophilic Efficiency (logP): 3.22

COMPOUND: Cc1cc(Br)ccc1OCC(=O)NNC(=O)c1ccccc1C [SR-01000318521]
Lipophilic Efficiency (logP): 2.39

COMPOUND: O=C(Cn1ncn2c(cc3sccc32)c1=O)NCCc1ccc(Cl)cc1 [SR-01000099712]
Lipophilic Efficiency (logP): 3.73

COMPOUND: O=C(CSc1ccc(Cl)cc1)NNC(=O)c1ccc([N+](=O)[O-])cc1 [SR-01000286858]
Lipophilic Efficiency (logP): 3.67

COMPOUND: COc1ccc2cc(CCNC(=O)/C=C\c3ccc4c(c3)OCO4)c(=O)[nH]c2c1 [SR-01000124392]
Lipophilic Efficiency (logP): 3.17

COMPOUND: O=C(CNc1nnc(CCCOc2ccc(Cl)cc2Cl)o1)Nc1nccs1 [SR-01000280669]
Lipophilic Efficiency (logP): 2.70

COMPOUND: COc1ccc(C)cc1NC(=O)NNC(=O)C(C)Oc1ccc(F)cc1Cl (stereo not drawn) [SR-01000277633]
Lipophilic Efficiency (logP): 2.82

COMPOUND: Nc1ccc2c(C(F)(F)F)cc(=O)oc2c1 [SR-01000597171]
Lipophilic Efficiency (logP): 3.74

COMPOUND: CNc1ccc(CCNC(=O)Cn2c3ccccc3c3nc(=O)cc(C)n32)cc1 [SR-01000139601]
Lipophilic Efficiency (logP): 3.57

COMPOUND: Cc1ccc(CC2CCC(CC(=O)CC3CCCCCCC3)C2=O)cc1 (stereo not drawn) [SR-01000151470]
Lipophilic Efficiency (logP): 2.62

COMPOUND: CCc1c(C2C(C(=O)OCc3ccccc3)=C(C)CC3=C2C(=O)CCC3)ccc(OC)c1OC (stereo not drawn) [SR-01000406098]
Lipophilic Efficiency (logP): 2.46

COMPOUND: Cc1ccc(CNc2nc3ccccc3n2CCN2CCOCC2)cc1 [SR-01000364205]
Lipophilic Efficiency (logP): 2.29

COMPOUND: O=C(NCCS(=O)(=O)N1CCc2ccccc2C1)C(c1ccccc1)c1ccccc1 [SR-01000911742]
Lipophilic Efficiency (logP): 2.28

COMPOUND: Cc1nn(CC(=O)NC2CCCc3ccccc32)c(=O)c2c1sc1ccccc12 (stereo not drawn) [SR-01000139982]
Lipophilic Efficiency (logP): 2.38

COMPOUND: O=C(CNC(=O)c1ccc(Br)o1)NC1CCCc2ccccc21 (stereo not drawn) [SR-01000064101]
Lipophilic Efficiency (logP): 4.09

COMPOUND: COc1cc(C(=O)NNC(=O)C(C)Oc2ccc(Cl)cc2Cl)cc(OC)c1OC (stereo not drawn) [SR-01000644888]
Lipophilic Efficiency (logP): 3.40

COMPOUND: COc1cc(OC)cc(C(=O)NNC(=O)CCc2ccccc2)c1 [SR-01000359572]
Lipophilic Efficiency (logP): 4.18

COMPOUND: CN(CCC(=O)NCC1Cc2cccc(-c3ccccn3)c2O1)C1CCS(=O)(=O)C1 (stereo not drawn) [SR-01000193031]
Lipophilic Efficiency (logP): 5.73

COMPOUND: O=C(CN1N=C(c2ccc(Cl)cc2)CCC1=O)NCCN1CCc2ccccc2C1 [SR-01000145135]
Lipophilic Efficiency (logP): 4.01

COMPOUND: O=C(CCOc1ccccc1)NCC1COc2ccccc2O1 (stereo not drawn) [SR-01000479007]
Lipophilic Efficiency (logP): 4.24

COMPOUND: CC(CCC(=O)C12CC3CC(CC(C3)C1)C2)CCc1ccc2ccccc2c1 (stereo not drawn) [SR-01000359546]
Lipophilic Efficiency (logP): 2.60

COMPOUND: COc1ccc(CSc2nnc(-c3cccnc3)n2N)cc1 [SR-01000284323]
Lipophilic Efficiency (logP): 4.90

COMPOUND: CC1CCCCN1C(=O)CN1C(=O)C2(CCc3ccccc3C2)NC1=S (stereo not drawn) [SR-01000044433]
Lipophilic Efficiency (logP): 4.10

COMPOUND: O=C(CN1CCCN(Cc2ccc(F)cc2Cl)C1=O)NC1CCCC1 [SR-01000146446]
Lipophilic Efficiency (logP): 4.40

COMPOUND: C=C(CCC)c1ccc(CCC2=NNC(c3ccccc3)N2C)cc1 (stereo not drawn) [SR-01000299610]
Lipophilic Efficiency (logP): 3.88

COMPOUND: CCCCC(=O)OCC(=O)NCc1ccc(C)cc1 [SR-01000042109]
Lipophilic Efficiency (logP): 3.80
